# EXPERIMENT: in vitro
# Assay type: cell-based
# MEASUREMENT_SETUP: mouse; RAW264.7 cells; 20 μM for 2 h, then LPS (500 ng/mL) 20 h; read-out: Cell viability, Average (%)
OBSERVATION_TYPE: viability at 22 h, 20 μM

| COMPOUND | OBSERVATION_TYPE | MEAS_VALUE |
| --- | --- | --- |
| N#CC1=C(N)Oc2c(c(=O)oc3ccccc23)C1c1ccccc1Br (stereo not drawn) | viability at 22 h, 20 μM | 129% |
| N#CC1=C(N)Oc2c(c(=O)oc3ccccc23)C1c1ccc(Cl)cc1 (stereo not drawn) | viability at 22 h, 20 μM | 103% |
| Cc1ccc(C2C(C#N)=C(N)Oc3c2c(=O)oc2ccccc32)cc1 (stereo not drawn) | viability at 22 h, 20 μM | 113% |

* * *

Entries and their viability at 22 h, 80 μM values follow.
# EXPERIMENT: in vitro
# Type: cell-based
# MEASUREMENT_SETUP: mouse; RAW264.7 cells; 80 μM for 2 h, then LPS (500 ng/mL) 20 h; read-out: Cell viability, Average (%)

| COMPOUND | viability at 22 h, 80 μM (%) |
| --- | --- |
| N#CC1=C(N)Oc2c(c(=O)oc3ccccc23)C1c1cccc(F)c1 (centres unmarked) | 101 |
| N#CC1=C(N)Oc2c(c(=O)oc3ccccc23)C1c1cccc(OC(F)(F)F)c1 (centres unmarked) | 112 |
| N#CC1=C(N)Oc2c(c(=O)oc3ccccc23)C1c1ccc(Br)cc1 (centres unmarked) | 135 |
| Cc1cccc(C2C(C#N)=C(N)Oc3c2c(=O)oc2ccccc32)c1 (centres unmarked) | 104 |
| N#CC1=C(N)Oc2c(c(=O)oc3ccccc23)C1c1cccc(Br)c1 (centres unmarked) | 120 |

* * *

Entries and their viability at 22 h, 20 μM values follow.
# EXPERIMENT: in vitro
# Assay type: cell-based
# MEASUREMENT_SETUP: mouse; RAW264.7 cells; 20 μM for 2 h, then LPS (500 ng/mL) 20 h; read-out: Cell viability, Average (%)
OBSERVATION_TYPE: viability at 22 h, 20 μM (%)

| MOLECULE | MEASUREMENT_UNIT | MEAS_VALUE |
| --- | --- | --- |
| N#CC1=C(N)Oc2c(c(=O)oc3ccccc23)C1c1ccc(OC(F)(F)F)cc1 (centres unmarked) | % | 110 |
| Cc1cccc(C2C(C#N)=C(N)Oc3c2c(=O)oc2ccccc32)c1 (centres unmarked) | % | 111 |
| N#CC1=C(N)Oc2c(c(=O)oc3ccccc23)C1c1cccc(Br)c1 (centres unmarked) | % | 117 |
| N#CC1=C(N)Oc2c(c(=O)oc3ccccc23)C1c1ccccc1Cl (centres unmarked) | % | 106 |
| N#CC1=C(N)Oc2c(c(=O)oc3ccccc23)C1c1ccc(Br)cc1 (centres unmarked) | % | 114 |

* * *

# EXPERIMENT: in vitro
# Assay type: cell-based
# MEASUREMENT_SETUP: mouse; RAW264.7 cells; 40 μM for 2 h, then LPS (500 ng/mL) 20 h; read-out: Cell viability, Average (%)
OBSERVATION_TYPE: viability at 22 h, 40 μM (%)

| COMPOUND | OBSERVATION_TYPE | MEASUREMENT_UNIT | MEAS_VALUE |
| --- | --- | --- | --- |
| N#CC1=C(N)Oc2c(c(=O)oc3ccccc23)C1c1cccc(F)c1 (stereo not shown) | viability at 22 h, 40 μM | % | 97.1 |
| N#CC1=C(N)Oc2c(c(=O)oc3ccccc23)C1c1ccccc1Br (stereo not shown) | viability at 22 h, 40 μM | % | 130 |
| Cc1ccccc1C1C(C#N)=C(N)Oc2c1c(=O)oc1ccccc21 (stereo not shown) | viability at 22 h, 40 μM | % | 111 |
| N#CC1=C(N)Oc2c(c(=O)oc3ccccc23)C1c1cccc(OC(F)(F)F)c1 (stereo not shown) | viability at 22 h, 40 μM | % | 118 |
| N#CC1=C(N)Oc2c(c(=O)oc3ccccc23)C1c1ccc(F)cc1 (stereo not shown) | viability at 22 h, 40 μM | % | 101 |
| N#CC1=C(N)Oc2c(c(=O)oc3ccccc23)C1c1ccc(C#N)cc1 (stereo not shown) | viability at 22 h, 40 μM | % | 122 |
| Cc1cccc(C2C(C#N)=C(N)Oc3c2c(=O)oc2ccccc32)c1 (stereo not shown) | viability at 22 h, 40 μM | % | 113 |

This collection of values is drawn from paper PMC10298626.
